- Test system: MDA-MB-468
- Test Name: Cytotoxicity against EGFR over-expressing human MDA-MB-468 cells assessed as cell viability at 10 uM after 48 hrs by MTT assay relative to control
- Assay type: functional
- Condition Details: MDA-MB-468, 48 h, read-out: Activity
The following molecules are shown together with reported viability at 10 µM values.
Measured Metric: viability at 10 µM (%)

Smiles String: c1cc(N2CCCCC2)nc(Nc2ccc(OCCCN3CCCCC3)cc2)n1
Measured Metric: viability at 10 µM
Measurement Unit: %
Recorded Value: 45.1
--
Smiles String: c1cc(N2CCCCC2)nc(Nc2ccc(OCCCN3CCOCC3)cc2)n1
Measured Metric: viability at 10 µM
Measurement Unit: %
Recorded Value: 55.2
--
Smiles String: c1cc(N2CCSCC2)nc(Nc2ccc(OCCCN3CCCCC3)cc2)n1
Measured Metric: viability at 10 µM
Measurement Unit: %
Recorded Value: 78.1

* * *

- System: MDA-MB-468
- Test Name: Cytotoxicity against EGFR over-expressing human MDA-MB-468 cells assessed as cell viability at 10 uM after 48 hrs by MTT assay relative to control
- Type: functional
- Condition Details: MDA-MB-468, 48 h, read-out: Activity
As shown below, each of these compounds has a reported viability at 10 µM value.
Measured Metric: viability at 10 µM (%)

Smiles String: c1cc(N2CCCC2)nc(Nc2ccc(OCCCN3CCCCC3)cc2)n1
Recorded Value: 58.1

Smiles String: CC1CCN(c2ccnc(Nc3ccc(OCCCN4CCSCC4)cc3)n2)CC1
Recorded Value: 61.3

Smiles String: CC1CCN(c2ccnc(Nc3ccc(OCCCN4CCCCC4)cc3)n2)CC1
Recorded Value: 21.3

Smiles String: CC1CCN(c2ccnc(Nc3ccc(OCCCN4CCOCC4)cc3)n2)CC1
Recorded Value: 51.3

Smiles String: CCN(CC)CCCOc1ccc(Nc2nccc(N3CCC(C)CC3)n2)cc1
Recorded Value: 16.9

Smiles String: CCN(CC)c1ccnc(Nc2ccc(OCCCN3CCSCC3)cc2)n1
Recorded Value: 36

* * *

- Tested on: MDA-MB-468
- Test Name: Cytotoxicity against EGFR over-expressing human MDA-MB-468 cells assessed as cell viability at 10 uM after 48 hrs by MTT assay relative to control
- Assay type: functional
- Condition Details: MDA-MB-468, 48 h, read-out: Activity
Note to self: class = bucket of viability at 10 µM, per low: < 60%; medium: ≥ 60% and < 70%; high: ≥ 70%

Smiles String: c1cc(N2CCOCC2)nc(Nc2ccc(OCCCN3CCSCC3)cc2)n1
Target Desc: MDA-MB-468
Classification: low
//
Smiles String: c1cc(N2CCOCC2)nc(Nc2ccc(OCCCN3CCOCC3)cc2)n1
Target Desc: MDA-MB-468
Classification: high
//
Smiles String: CN1CCN(c2ccnc(Nc3ccc(OCCCN4CCOCC4)cc3)n2)CC1
Target Desc: MDA-MB-468
Classification: high
//
Smiles String: c1cc(N2CCCC2)nc(Nc2ccc(OCCCN3CCOCC3)cc2)n1
Target Desc: MDA-MB-468
Classification: high
//
Smiles String: CN1CCN(c2ccnc(Nc3ccc(OCCCN4CCSCC4)cc3)n2)CC1
Target Desc: MDA-MB-468
Classification: low
//
Smiles String: ClC1CCN(c2ccnc(Nc3ccc(OCCCN4CCSCC4)cc3)n2)CC1
Target Desc: MDA-MB-468
Classification: medium
